The values you see were collected from ChEMBL document CHEMBL1132808.

// pIC50 collected for Bone morphogenetic protein 1 (Homo sapiens)
pIC50: −log10 of the molar value. Where a SMILES comes first, the peptide text is derived from it. [ ]: non-standard residue; d: D form. The star is where a group is joined. ξ: configuration not given here. Cbz = O=C(OCc1ccccc1)*; ξT = CC(O)C(N)C(=O)O; NHOH = ON*
ENDPOINT: pIC50

[[record]]
compound = "CC[C@@H](C)[C@@H](NCN(Cc1ccc(F)cc1)C(=O)c1cccc(C)c1)C(=O)N[C@H](Cc1cscn1)C(=O)NO"
inequality_sign = "="
recorded_number = 6.96

[[record]]
compound = "CNC(=O)[C@H](CCC(N)=O)NC(=O)[C@H](CC(=O)O)CC(=O)NO"
inequality_sign = "="
recorded_number = 4.17

[[record]]
compound = "CC[C@@H](C)[C@@H](NC(=O)OCc1cccc(C(F)(F)F)c1)C(=O)N[C@H](Cc1cscn1)C(=O)NO"
inequality_sign = "="
recorded_number = 7.05

[[record]]
compound = "CC(O)C(NC(=O)OCc1ccccc1)C(=O)N[C@@H](Cc1c[nH]c2ccccc12)C(=O)NO (stereo partly specified) (Cbz-[ξT]-Trp-{NHOH})"
inequality_sign = "="
recorded_number = 4.82

[[record]]
compound = "CC[C@@H](C)[C@@H](NCN(Cc1ccc(F)cc1)C(=O)c1ccc(F)cc1)C(=O)N[C@H](Cc1cscn1)C(=O)NO"
inequality_sign = "="
recorded_number = 7.05

[[record]]
compound = "CC(=O)N[C@@H](CCCNC(=N)N)C(=O)N[C@@H](C)C(=O)NO (Ac-Arg-Ala-{NHOH})"
inequality_sign = "<"
recorded_number = 3.10

